Value source: patent US20020169193A1

Experiment: Bioavailability, oral versus intravenous administration in rats, plasma HPLC
Type: in vivo
Conditions: rat; male fasted rats, oral vs intravenous, pooled plasma
Metric name: bioavailability (%)
One number for each entry, in %.

Cc1c(C(C)C)ccc(Cl)c1NC1=NCCN1 : 8

# ---- query compound ----
Exercise: Return bioavailability for the following compound: `Cc1c(NC2=NCCN2)ccc(Br)c1C(C)C`
Solution: 53

---

Molecular target: CYP2D6 (Homo sapiens)
Sequence (P10635 whole entry): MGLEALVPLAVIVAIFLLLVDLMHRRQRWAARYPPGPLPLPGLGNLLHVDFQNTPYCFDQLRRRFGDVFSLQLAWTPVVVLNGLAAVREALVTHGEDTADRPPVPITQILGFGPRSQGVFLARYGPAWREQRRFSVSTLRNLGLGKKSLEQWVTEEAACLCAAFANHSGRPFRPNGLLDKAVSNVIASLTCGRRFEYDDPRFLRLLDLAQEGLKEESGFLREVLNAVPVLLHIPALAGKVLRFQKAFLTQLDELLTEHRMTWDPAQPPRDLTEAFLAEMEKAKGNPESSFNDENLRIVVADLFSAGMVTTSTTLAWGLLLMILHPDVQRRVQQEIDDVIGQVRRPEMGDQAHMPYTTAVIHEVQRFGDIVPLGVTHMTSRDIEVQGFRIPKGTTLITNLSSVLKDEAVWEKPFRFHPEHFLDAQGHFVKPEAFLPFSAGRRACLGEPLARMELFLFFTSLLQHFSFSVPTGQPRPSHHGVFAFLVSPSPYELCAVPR
Experiment: Metabolism: substrate breakdown by enzyme CYP2D6
Type: in vitro ADME
Kindly return Y if reported % Substrate Breakdown After 30 Minutes Incubation with CYP2D6 is no lower than 6%; return N if it is lower.

Study these solved cases before continuing.
Cc1c(NC2=NCCN2)ccc(Br)c1C(C)C : N
CC(C)(C)c1ccc(Br)c(N=C2NCCN2)c1 : N
Cc1c(C(C)C)ccc(Br)c1NC1=NCCN1 : Y
Cc1c(NC2=NCCN2)cccc1C(C)C : Y
Cc1c(NC2=NCCN2)ccc(Cl)c1C(C)C : Y

Here's the next entry for you.
Exercise: I'd appreciate it if you could say whether `COc1ccc(C(C)(C)C)cc1N=C1NCCN1` has % Substrate Breakdown After 30 Minutes Incubation with CYP2D6 at least equal to 6%.
Solution: N

---

Test system: HLM
Experiment: Metabolism: decomposition under the effect of HLM
Type: in vitro ADME
Rule: measured % Substrate Breakdown After 60 Minutes Incubation with HLM below 6% gets Satisfied; anything equal to or greater than 6% gets Not satisfied.

Exercise: % Substrate Breakdown After 60 Minutes Incubation with HLM under 6%? Item: `CC(C)(C)c1ccc(Br)c(N=C2NCCN2)c1`
Solution: Satisfied

Exercise: % Substrate Breakdown After 60 Minutes Incubation with HLM under 6%? Item: `COc1ccc(C(C)(C)C)cc1N=C1NCCN1`
Solution: Satisfied

Exercise: % Substrate Breakdown After 60 Minutes Incubation with HLM under 6%? Item: `Cc1c(NC2=NCCN2)cccc1C(C)C`
Solution: Not satisfied

Exercise: % Substrate Breakdown After 60 Minutes Incubation with HLM under 6%? Item: `Cc1c(C(C)C)ccc(Cl)c1NC1=NCCN1`
Solution: Not satisfied

Exercise: % Substrate Breakdown After 60 Minutes Incubation with HLM under 6%? Item: `Cc1c(NC2=NCCN2)ccc(Cl)c1C(C)C`
Solution: Satisfied

Exercise: % Substrate Breakdown After 60 Minutes Incubation with HLM under 6%? Item: `Cc1c(C(C)C)ccc(Br)c1NC1=NCCN1`
Solution: Not satisfied

---

Please provide measured Activity on Human Urethra for the entries that follow.
Test system: Human Urethra
Experiment: Efficacy: contraction of human urethra compared with noradrenaline
Conditions: percentage of contraction compared with noradrenaline
One number for each entry, in %.

Known results for compounds:
COc1ccc(C(C)(C)C)cc1N=C1NCCN1 [Compound 2] : 30
Cc1c(C(C)C)ccc(Cl)c1NC1=NCCN1 [Compound 3] : 41
Cc1c(NC2=NCCN2)cccc1C(C)C [Compound 1] : 11

# ---- query compound ----
Exercise: Return Activity on Human Urethra for the following compound: Cc1c(NC2=NCCN2)ccc(Br)c1C(C)C [Compound 7]
Solution: 21

---

System: dog's femoral artery / carotid artery in the dog
Assay: Selectivity in the dog: femoral artery versus carotid artery contraction
Settings: percentage contraction of femoral artery at 10^−5 M — percentage contraction of carotid artery at 10^−5 M
Please provide measured Selectivity in the Dog for the entries that follow.
Give bare numbers.

Known results for molecules:
Cc1c(NC2=NCCN2)ccc(Cl)c1C(C)C [Compound 4] : 0.5
Cc1c(C(C)C)ccc(Br)c1NC1=NCCN1 [Compound 5] : 0.4
COc1ccc(C(C)(C)C)cc1N=C1NCCN1 [Compound 2] : 0.6
Cc1c(NC2=NCCN2)cccc1C(C)C [Compound 1] : 0.7
Cc1c(NC2=NCCN2)ccc(Br)c1C(C)C [Compound 7] : 0.7

Exercise: Would you please give the reported Selectivity in the Dog of Cc1c(C(C)C)ccc(Cl)c1NC1=NCCN1 [Compound 3] with dog's femoral artery / carotid artery in the dog?
Solution: 0.7
